EXPERIMENTAL_PROTOCOL: Oral bioavailability in Beagle dog at 10 mg/kg
Type: ADME, organism-based, Canis lupus familiaris
COND: in vivo
REPORTED_ENDPOINT: bioavailability (%)
Write the value in % as a bare number.

The reported value for `CCOP(=O)(COc1ccc(C[C@H](NC(=O)O[C@H]2CO[C@H]3OCC[C@H]32)[C@H](O)CN(CC(C)C)S(=O)(=O)c2ccc(OC)cc2)cc1)OCC` in terms of bioavailability is 6.9

---

Tested on: Human immunodeficiency virus 1
EXPERIMENTAL_PROTOCOL: Antiviral activity against wild type HIV1 3B infected in human MT2 cells assessed as virus-induced cytopathic effect after 5 days by XTT assay
Assay type: functional, organism-based
COND: Human immunodeficiency virus 1, 3B, MT2, 120 h
REPORTED_ENDPOINT: EC50 (nM)
Kindly answer with a numeric value in nM, unit omitted.

{"columns": ["MOL_SMILES", "REPORTED_ENDPOINT", "VAL"],
 "data": [
  ["COc1ccc(C[C@H](NC(=O)O[C@H]2CO[C@H]3OCC[C@H]32)[C@H](O)CN(CC(C)C)S(=O)(=O)c2ccc(OC)cc2)cc1", "EC50", 0.06],
  ["COc1ccc(S(=O)(=O)N(CC(C)C)C[C@@H](O)[C@H](Cc2ccc(OCP(=O)(OC)OC)cc2)NC(=O)O[C@H]2CO[C@H]3OCC[C@H]32)cc1", "EC50", 18.8],
  ["Cc1c(O)cccc1C(=O)N[C@@H](CSc1ccccc1)[C@H](O)CN1C[C@H]2CCCC[C@H]2C[C@H]1C(=O)NC(C)(C)C", "EC50", 4.9],
  ["COc1ccc(S(=O)(=O)N(CC(C)C)C[C@@H](O)[C@H](Cc2ccc(OCP(=O)(OC(C)C)OC(C)C)cc2)NC(=O)O[C@H]2CO[C@H]3OCC[C@H]32)cc1", "EC50", 1.9],
  ["Cc1cccc(C)c1OCC(=O)N[C@@H](Cc1ccccc1)[C@@H](O)C[C@H](Cc1ccccc1)NC(=O)[C@H](C(C)C)N1CCCNC1=O", "EC50", 5.6]
]}

Memo: `COc1ccc(S(=O)(=O)N(CC(C)C)C[C@@H](O)[C@H](Cc2ccc(O)cc2)NC(=O)O[C@H]2CO[C@H]3OCC[C@H]32)cc1` , reported EC50: 6.9

---

Overview of recorded Ratio EC50 for various compounds
System: Human immunodeficiency virus 1
EXPERIMENTAL_PROTOCOL: Fold resistance, ratio of EC50 for HIV1 3B harboring protease M46I/I50V mutant infected in human MT2 cells to EC50 for wild type HIV1 3B infected in human MT2 cells
Format: functional
Just the number, please, no unit attached.

{"columns": ["COMPOUND", "VAL"],
 "data": [
  ["CCOP(=O)(COc1ccc(C[C@H](NC(=O)O[C@H]2CO[C@H]3OCC[C@H]32)[C@H](O)CN(CC(C)C)S(=O)(=O)c2ccc(OC)cc2)cc1)OCC", 2.4],
  ["COC(=O)N[C@H](C(=O)N[C@@H](Cc1ccccc1)[C@@H](O)CN(Cc1ccc(-c2ccccn2)cc1)NC(=O)[C@@H](NC(=O)OC)C(C)(C)C)C(C)(C)C [ATAZANAVIR]", 1.9],
  ["COC(=O)c1ccc(C[C@H](NC(=O)O[C@H]2CO[C@H]3OCC[C@H]32)[C@H](O)CN(CC(C)C)S(=O)(=O)c2ccc(OC)cc2)cc1", 11]
]}

The compound `Cc1c(O)cccc1C(=O)N[C@@H](CSc1ccccc1)[C@H](O)CN1C[C@H]2CCCC[C@H]2C[C@H]1C(=O)NC(C)(C)C` showed Ratio EC50 equal to 16.5

What the record says about `COc1ccc(S(=O)(=O)N(CC(C)C)C[C@@H](O)[C@H](Cc2ccc(OCP(=O)(OC(C)C)OC(C)C)cc2)NC(=O)O[C@H]2CO[C@H]3OCC[C@H]32)cc1` : Ratio EC50 is 6

So for `COc1ccc(C[C@H](NC(=O)O[C@H]2CO[C@H]3OCC[C@H]32)[C@H](O)CN(CC(C)C)S(=O)(=O)c2ccc(OC)cc2)cc1` , the logged Ratio EC50 turned out to be 157

Documented Ratio EC50 of `CCOP(=O)(Cc1ccc(C[C@H](NC(=O)O[C@H]2CO[C@H]3OCC[C@H]32)[C@H](O)CN(CC(C)C)S(=O)(=O)c2ccc(OC)cc2)cc1)OCC` : 36

Reported Ratio EC50 of `CC(C)CN(C[C@@H](O)[C@H](Cc1ccccc1)NC(=O)O[C@H]1CCOC1)S(=O)(=O)c1ccc(N)cc1` : 159

Kindly note the recorded Ratio EC50 for `CCOP(=O)(CCc1ccc(C[C@H](NC(=O)O[C@H]2CO[C@H]3OCC[C@H]32)[C@H](O)CN(CC(C)C)S(=O)(=O)c2ccc(OC)cc2)cc1)OCC` , which is 3.1

Just so you know, measured Ratio EC50 for `CCOP(=O)(OCC)c1ccc(C[C@H](NC(=O)O[C@H]2CO[C@H]3OCC[C@H]32)[C@H](O)CN(CC(C)C)S(=O)(=O)c2ccc(OC)cc2)cc1` came out at 4.5

Lab note: measured Ratio EC50 of `COc1ccc(S(=O)(=O)N(CC(C)C)C[C@@H](O)[C@H](Cc2ccc(O)cc2)NC(=O)O[C@H]2CO[C@H]3OCC[C@H]32)cc1` was 5.1

Attribution: ChEMBL document CHEMBL3217662
